# assay.target: UniProtKB Q16853
# Sequence (Q16853 whole entry): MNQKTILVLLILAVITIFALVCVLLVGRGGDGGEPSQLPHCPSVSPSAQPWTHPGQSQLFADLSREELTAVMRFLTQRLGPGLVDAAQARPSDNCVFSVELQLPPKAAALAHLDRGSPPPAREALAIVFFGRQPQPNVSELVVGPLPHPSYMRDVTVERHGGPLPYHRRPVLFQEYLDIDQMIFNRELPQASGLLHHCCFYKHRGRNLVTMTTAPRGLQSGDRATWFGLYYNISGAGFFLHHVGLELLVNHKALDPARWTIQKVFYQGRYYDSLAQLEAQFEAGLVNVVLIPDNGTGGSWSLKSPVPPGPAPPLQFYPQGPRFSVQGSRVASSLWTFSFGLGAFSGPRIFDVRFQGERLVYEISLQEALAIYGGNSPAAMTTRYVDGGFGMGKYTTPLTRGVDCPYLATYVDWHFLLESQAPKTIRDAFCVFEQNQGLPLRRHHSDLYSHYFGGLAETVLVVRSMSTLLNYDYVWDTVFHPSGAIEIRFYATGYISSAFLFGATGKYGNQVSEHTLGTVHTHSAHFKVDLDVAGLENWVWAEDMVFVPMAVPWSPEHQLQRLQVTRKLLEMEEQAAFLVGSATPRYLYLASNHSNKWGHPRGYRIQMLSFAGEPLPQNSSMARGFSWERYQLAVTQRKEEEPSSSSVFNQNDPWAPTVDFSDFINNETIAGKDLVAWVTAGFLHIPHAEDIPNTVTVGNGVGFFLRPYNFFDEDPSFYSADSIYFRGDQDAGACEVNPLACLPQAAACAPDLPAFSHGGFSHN
# experimental.details: Inhibition of human recombinant SSAO/VAP1 assessed as H2O2 production by Resorufin/Amplex Red assay
pIC50: −log10 of the molar value.
# label = YES if pIC50 >= 7 else NO

# mol.smiles, class.name
data = [
    ("CC(C)(C)c1ccc(OC/C(F)=C\\CN)cc1", "NO"),
    ("NC/C(=C/F)CCc1ccc(F)cc1", "YES"),
    ("C[C@@H](NC(=O)c1ccc(OC/C(F)=C\\CN)cc1)c1ccccc1", "YES"),
    ("CSc1ccc(OC/C(F)=C\\CN)cc1", "YES"),
    ("NC/C=C(/F)COc1ccc(OC(F)(F)F)cc1", "NO"),
    ("NC/C=C(/F)COc1ccccc1", "NO"),
]

Where these numbers come from: ChEMBL document CHEMBL2029323
